biological target: Luciferin 4-monooxygenase (Photinus pyralis, UniProt P08659); test: inhibition of purified Photinus pyralis luciferase – biochemical, luminescence, dose response (AID 1891)
Sequence (P08659 whole entry): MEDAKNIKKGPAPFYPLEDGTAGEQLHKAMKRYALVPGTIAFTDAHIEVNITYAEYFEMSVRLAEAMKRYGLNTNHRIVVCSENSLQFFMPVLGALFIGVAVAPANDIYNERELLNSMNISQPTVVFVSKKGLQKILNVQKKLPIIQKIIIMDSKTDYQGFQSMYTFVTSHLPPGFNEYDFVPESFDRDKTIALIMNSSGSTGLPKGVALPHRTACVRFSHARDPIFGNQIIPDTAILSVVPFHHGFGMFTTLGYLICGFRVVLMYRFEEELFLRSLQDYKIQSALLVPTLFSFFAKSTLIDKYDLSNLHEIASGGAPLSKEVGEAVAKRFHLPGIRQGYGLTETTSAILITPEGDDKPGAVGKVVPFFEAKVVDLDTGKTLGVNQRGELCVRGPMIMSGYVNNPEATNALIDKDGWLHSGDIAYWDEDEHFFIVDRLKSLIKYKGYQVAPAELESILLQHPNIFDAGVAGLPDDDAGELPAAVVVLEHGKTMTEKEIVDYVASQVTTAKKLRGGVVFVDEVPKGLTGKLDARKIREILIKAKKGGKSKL
Calls of active or inactive are those of the source.
Endpoint label: EC50

1) CN1CCN(c2ccc(-c3ccc4ccccc4n3)cc2)CC1
0.953 µM (active)
2) COc1ccc(CN2CCCC(C(=O)c3cccc(OC(C)C)c3)C2)cc1Cn1cccn1 (stereo unspecified)
> 112 µM (not active)
3) O=C(CC1(O)C(=O)N(Cc2ccccc2)c2ccccc21)c1ccncc1 (stereo unspecified)
> 112 µM (not active)
4) CC1=[N+]([O-])C(C)(C)N(O)C1(C)C
> 112 µM (not active)
5) COc1cccc(CC(=O)Nc2nc3c(s2)C(=O)CC(C)(C)C3)c1
> 112 µM (not active)
6) Nc1cc2sc(-c3ccc(C(=O)O)cc3)nc2cc1Cl
0.441 µM (active)
7) Oc1c(/C=N/c2ccccn2)sc2ccccc12
1.8 µM (active)
8) CCCCn1c(N)c(N(Cc2ccccc2OC)C(=O)C(C)Oc2ccc(Cl)cc2)c(=O)[nH]c1=O (stereo unspecified)
> 112 µM (not active)
9) CN(C)CCOC(=O)CCc1ccccc1
> 112 µM (not active)
10) Cc1nn(CC(=O)Nc2cccnc2)c(C)c1[N+](=O)[O-]
> 112 µM (not active)
11) COc1ccc(-c2nnc3n(CCc4ccccc4)c(=O)c4ccccc4n23)c(OC)c1
> 112 µM (not active)

###

Target: High affinity choline transporter 1 (Homo sapiens, UniProt Q9GZV3)
Sequence (Q9GZV3 whole entry): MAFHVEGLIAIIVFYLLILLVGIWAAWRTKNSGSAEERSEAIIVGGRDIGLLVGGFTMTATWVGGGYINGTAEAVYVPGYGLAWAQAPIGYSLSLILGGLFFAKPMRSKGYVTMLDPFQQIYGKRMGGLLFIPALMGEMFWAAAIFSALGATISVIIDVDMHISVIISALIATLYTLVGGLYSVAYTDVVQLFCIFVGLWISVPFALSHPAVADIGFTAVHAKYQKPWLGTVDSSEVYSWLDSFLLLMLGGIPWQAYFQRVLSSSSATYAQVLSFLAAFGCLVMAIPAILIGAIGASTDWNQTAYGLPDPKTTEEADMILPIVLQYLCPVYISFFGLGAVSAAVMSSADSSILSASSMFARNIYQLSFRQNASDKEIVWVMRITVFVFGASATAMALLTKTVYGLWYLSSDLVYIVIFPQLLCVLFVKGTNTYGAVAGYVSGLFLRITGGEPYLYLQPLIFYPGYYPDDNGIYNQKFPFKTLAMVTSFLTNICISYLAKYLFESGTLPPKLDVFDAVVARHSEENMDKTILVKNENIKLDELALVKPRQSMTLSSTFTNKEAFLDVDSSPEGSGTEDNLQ
Test: human choline transporter blockers, potency – cell-based, 5-point CRC, membrane potential dye, dose response (AID 504840)
Type: functional
Active and inactive are the calls of the source.
Endpoint label: IC50

1) CCC(NC(C)c1ccccc1)=C1C(=O)N(C)C(=O)N(C)C1=O (configuration not stated)
9.12 µM (active)
2) CCC(C)c1ccc(NC(S)=NC(C)C2CCCO2)cc1 (configuration not stated)
5.01 µM (active)
3) O=C(NCCN1CCCC1)c1ccc2c(c1)N(Cc1cccc(Cl)c1)C(=O)c1ccccc1S2(=O)=O
11.5 µM (active)
4) CSC1=NS(=O)(=O)c2c(C)nn(C)c2S1
10.7 µM (active)
5) Cc1n[nH]c(C)c1Sc1ccccc1/N=C/c1cc(Cl)cc([N+](=O)[O-])c1O
8.88 µM (active)
6) O=C(C[n+]1cccc(Br)c1)c1ccc(-c2ccccc2)cc1
2.83 µM (active)
7) Cc1cccc(-n2cc(CN3CCN(Cc4nccn4C)CC3)c(-c3cccc(F)c3)n2)c1
13.5 µM (active)
